Form field: pKd (one value per entry).
- measurement-target: Sox2 HMG DBD WT (human, UniProt P48431 39-118)
- Sequence (P48431 39-118): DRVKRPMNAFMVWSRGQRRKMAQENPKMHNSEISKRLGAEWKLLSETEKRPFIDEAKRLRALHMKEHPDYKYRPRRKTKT
- protocol-text: EMSA
pKd: −log10 of the molar value.

| binder | pKd |
| --- | --- |
| DNA 2RN (dsDNA) DNA 1: TGGAGAATCCCGGTGCCGAGGCCGCTCAATTGGTCGTAGACAGCTCTAGCACCGCTTAAACGCACGTACGCATTGTAATGCAAAATTTAACCGCCAAGGGGATTACTCCCTAGTCTCCAGGCACGTGTGGTTACGAGGCTATCGT DNA 2: ACGATAGCCTCGTAACCACACGTGCCTGGAGACTAGGGAGTAATCCCCTTGGCGGTTAAATTTTGCATTACAATGCGTACGTGCGTTTAAGCGGTGCTAGAGCTGTCTACGACCAATTGAGCGGCCTCGGCACCGGGATTCTCCA | 8.43 |
| DNA 54RN (dsDNA) DNA 1: TGGAGAATCCCGGTGCCGAGGCCGCTCAATTGGTCGTAGACAGCTCTAGCACCGCTTAAACGCACGTACGCGCTGTCCCCCGCGTTTTAACCGCCAAGGGGATTACTCCCTAGTCTCCAGGCCATTGTAATGCAAAAGCTATCGT DNA 2: ACGATAGCTTTTGCATTACAATGGCCTGGAGACTAGGGAGTAATCCCCTTGGCGGTTAAAACGCGGGGGACAGCGCGTACGTGCGTTTAAGCGGTGCTAGAGCTGTCTACGACCAATTGAGCGGCCTCGGCACCGGGATTCTCCA | 8.52 |
